- Tested on: PBMC
- assaySummary: in vitro
- Assay type: cell-based
- measurementParameters: 7 days

>  <sampleSmiles>
COc1c(C)c2c(c(O)c1CCO)C(=O)OC2

>  <CC50>
> 100 µM

$$$$

* * *

Recorded EC90 for the following molecules
- Test system: BVDV
- assaySummary: BVDV real time RT-PCR antiviral assay in MDBK cells
- Assay type: cell-based, Bovine viral diarrhea virus (BVDV), strain NADL
- measurementParameters: Bovine viral diarrhea virus isolates and strains, MDBK, 24 h, read-out: Antiviral (24 hrs) EC90

>  <molecule>
COc1c(C)c2c(c(O)c1C/C=C(\C)CCC(=O)O)C(=O)OC2 [Mycophenolic Acid (MPA), Mycophenolic Acid]

>  <unitTag>
nM

>  <relationalOperator>
<

>  <EC90>
1000

$$$$
>  <molecule>
NC(=O)c1csc(C2OC(COP(=O)(O)CP(=O)(O)OCC3OC(n4cnc5c(N)ncnc54)C(O)C3O)C(O)C2O)n1 (stereo not drawn) [β-CH2-TAD]

>  <unitTag>
nM

>  <relationalOperator>
>

>  <EC90>
100000

$$$$
>  <molecule>
NC(=O)c1csc([C@@H]2O[C@H](CO)[C@@H](O)[C@H]2O)n1 [Tiazofurin]

>  <unitTag>
nM

>  <relationalOperator>
=

>  <EC90>
7000

$$$$
>  <molecule>
NC(=O)c1ncn([C@@H]2O[C@H](CO)[C@@H](O)[C@H]2O)c1O [Mizoribine]

>  <unitTag>
nM

>  <relationalOperator>
>

>  <EC90>
100000

$$$$
>  <molecule>
NC(=O)c1cccc(C2OC(CO)C(O)C2O)c1 (stereo not drawn) [Benzamide Riboside]

>  <unitTag>
nM

>  <relationalOperator>
=

>  <EC90>
3000

$$$$
>  <molecule>
NC(=O)c1ncn([C@@H]2O[C@H](CO)[C@@H](O)[C@H]2O)n1 [Ribavirin]

>  <unitTag>
nM

>  <relationalOperator>
=

>  <EC90>
2000

$$$$

* * *

Recorded CC50 at 7 days for the following compounds
- assaySummary: Cytotoxicity in CEM cells
- measurementParameters: human, CEM cells
valueType: CC50 at 7 days

>  <compound>
NC(=O)c1csc([C@@H]2O[C@H](CO)[C@@H](O)[C@H]2O)n1

>  <measValue>
73.4 µM

$$$$
>  <compound>
COc1c(C)c2c(c(O)c1C/C=C(\C)CCC(=O)O)C(=O)OC2

>  <measValue>
0.05 µM

$$$$
>  <compound>
NC(=O)c1ncn([C@@H]2O[C@H](CO)[C@@H](O)[C@H]2O)n1

>  <measValue>
75 µM

$$$$
>  <compound>
NC(=O)c1csc(C2OC(COP(=O)(O)CP(=O)(O)OCC3OC(n4cnc5c(N)ncnc54)C(O)C3O)C(O)C2O)n1 (centres unmarked)

>  <measValue>
47.8 µM

$$$$
>  <compound>
COc1c(C)c2c(c(O)c1CCOP(=O)(O)CP(=O)(O)OC[C@H]1O[C@@H](n3cnc4c(N)ncnc43)C(O)[C@H]1O)C(=O)OC2 (some centres unmarked)

>  <measValue>
17.7 µM

$$$$
